Reported Max. cAMP (Fold Basal) values for the following binders.
- system: T1, rat pancreatic islet (wild type) GIP-receptor stably expressed on CHO-K1 cells (rat, UniProt P43219 19-455)
- T1 sequence (looked up): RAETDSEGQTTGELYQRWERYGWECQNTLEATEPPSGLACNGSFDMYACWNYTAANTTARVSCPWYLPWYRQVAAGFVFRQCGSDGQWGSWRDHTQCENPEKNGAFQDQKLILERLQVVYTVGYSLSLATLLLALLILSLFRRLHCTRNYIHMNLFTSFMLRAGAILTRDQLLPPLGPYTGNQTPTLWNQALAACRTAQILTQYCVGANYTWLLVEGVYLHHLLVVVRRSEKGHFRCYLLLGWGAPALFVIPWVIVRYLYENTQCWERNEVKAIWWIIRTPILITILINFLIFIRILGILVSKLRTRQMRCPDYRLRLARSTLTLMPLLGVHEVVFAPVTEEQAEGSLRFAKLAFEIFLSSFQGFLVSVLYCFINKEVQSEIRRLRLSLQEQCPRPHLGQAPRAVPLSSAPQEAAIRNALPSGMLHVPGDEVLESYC
- assay remarks: cell-based or functional assay
Ends that are not written are not given here.
Reply with just the number (in fold basal).

binder	unit spec	Max. cAMP (Fold Basal)
YAEGTFEKEEKEKEEKEQQDFVNWLLAQK-NH2 (range 1-6;range 19-30; The expected mass 3574.0 fits the 11-residue linker as printed) [GIP(1-6)(EKEEKEKEEKE)(19-30)NH2]	fold basal	84.9
YAEGTFQQDFVNWLLAQK-NH2 (peptide, UniProt P09681 52-57, looked up, range 1-6;range 19-30; Core deletion, no linker (formula 5, C not used, truncated at residue 30)) [GIP(1-6)(19-30)NH2]	fold basal	1.81
YAEGTFISDYSIAMAAAAQQDFVNWLLAQK-NH2 (range 1-14;range 19-30) [GIP(1-14)(AAAA)(19-30)NH2]	fold basal	82.1

Okay, next one:
What the record says about YAEGTFISDYSIAMQQDFVNWLLAQK-NH2 (peptide, UniProt P09681 52-65, looked up, range 1-14;range 19-30; Core deletion, no linker (formula 6, D unused, truncated at residue 30)) [GIP(1-14)(19-30)NH2] : Max. cAMP (Fold Basal) is 127

Taken from patent US20050137135A1.
